# Tested on: UO-31 renal
# assay details: NCI-60 one-dose screen, 48 h (100 = growth as untreated, 0 = no growth, -100 = all killed)
# particulars: 10 µM unless noted
The panel holds about 83,000 compounds, 20% with a hit somewhere; the sample as a whole holds those more often.
The following molecules are listed with their measured growth values.
Write the answer as a number in %, unit excluded.

1) C=C1CC[C@@H]2[C@](C)(COC(C)=O)[C@H](OC(C)=O)CC[C@@]2(C)[C@@H]1CC(Nc1ccc(S(=O)(=O)Nc2cc(C)on2)cc1)C1=CCOC1=O (stereo partly specified) :: 56.9
2) COC(=O)CCC1=C(C)C(C)=N/C1=C\c1[nH]c(-c2ccc[nH]2)cc1OC :: -67

IN: Need growth of "Cc1c(C(N)=O)sc2nc(SCC(=O)Nc3ccc(Cl)cc3)n(-c3ccccc3)c(=O)c12" , thanks.
OUT: 121

IN: Quick check: growth of "c1ccc(-c2nnc(Nc3nnc(-c4ccccc4)s3)s2)cc1" ?
OUT: 82.5

IN: Could you share which growth value was measured for "CC1=NN(c2ccccc2Cl)C(=O)/C1=C\c1cn(S(=O)(=O)c2ccc(C)cc2)c2ccccc12" ?
OUT: 78.2

IN: Give the measured growth of CSc1ccc2c(c1)N(CCC1CCCCN1C)c1ccccc1S2 (stereo unspecified) .
OUT: 28.2

====

# System: TK-10 renal
# assay details: NCI-60 one-dose screen, 48 h (100 = growth as untreated, 0 = no growth, -100 = all killed)
# particulars: 10 µM unless noted
Compounds without any hit were thinned out: in the full panel of roughly 83,000, 20% have a hit.
# maps each entry to its growth
Expressed in %, but write only the number.

1. CCN(CC)CCOc1ccc(C2=C(c3ccccc3)CCc3cc(OC)ccc32)cc1 :: -21.1
2. C/C(=N\N1CC(=O)NC1=O)c1ccc([N+](=O)[O-])o1 :: 105
3. COc1cc2c(cc1OC)C1CCN3C(=O)CCC3N1CC2 (stereo not given) :: 104
4. Clc1ccc(CCC(Cn2ccnc2)Sc2c(Cl)cccc2Cl)cc1 (stereo not given) :: 52.4
5. O=C(Nc1cccc(C(F)(F)F)c1)Nc1ccc(OCc2nnc(-c3ccc(Cl)cc3)o2)c(F)c1 :: 81.3
6. O=C1NCC(Nc2ccc(Br)cc2Cl)C(=O)N1 (stereo not given) :: 110
7. Cn1cnc([N+](=O)[O-])c1S(=O)(=O)Oc1ccc(Cl)cc1 :: 96.1
8. Clc1nc(Cl)c2ncn(-c3ccccc3)c2n1 :: 71.9
9. C[C@]12CC[C@@H]3c4ccc(O)cc4CC[C@H]3[C@@H]1CC[C@@H]2NS(=O)(=O)c1cccc(Br)c1 :: 75.4
10. CC(C)COCC(CN(Cc1ccccc1)c1ccccc1)N1CCCC1 (stereo not given) :: 29.9

IN: I'd like to know its growth. The molecule in question is "COc1ccc2nc3cc(Cl)ccc3c(N3CCN(c4ccnc(Nc5ccc(F)cc5)n4)CC3)c2c1"
OUT: 66.1

IN: // query growth value for entry "C=C(C[C@](O)(C(=O)/C=C/c1ccc(Cl)cc1)C(=O)OC)c1ccccc1"
OUT: 64.6

IN: Requested read-out: growth. Entry: "COC(=O)CC1=C(C)/C(=C/c2[nH]c(-c3ccc[nH]3)cc2OC)N=C1C"
OUT: 6.46

IN: Which growth is reported for this molecule? "COc1cc(OC)c2sc(-c3ccc(-n4cncc4-c4ccc(N)cc4)cc3)nc2c1"
OUT: 70

IN: Data request, read-out growth, for "N#CCCN(CCO)c1ccccc1"
OUT: 93.7
